System: PC-3 prostate
test.summary: NCI-60 one-dose screen, 48 h
run.conditions: 10 µM unless noted
Compounds without any hit were thinned out: in the full panel of roughly 83,000, 20% have a hit. Active and inactive are the calls of the source. The calls were made as follows: active = growth percent below 10; inactive = the rest.
Can you answer with just one of these options? active, inactive

>  <compound>
Nc1ccc(Cl)c([N+](=O)[O-])c1

>  <discrete.label>
inactive

$$$$
>  <compound>
C=C(C)[C@@H]1CC[C@]2(C(=O)O)CC[C@]3(C)[C@H](CC[C@@H]4[C@@]5(C)C/C(=C/c6ccco6)C(=O)C(C)(C)[C@@H]5CC[C@]43C)[C@@H]12

>  <discrete.label>
active

$$$$
>  <compound>
Cc1ccc(-c2cn(C/C=C3\C=CN(S(=O)(=O)c4ccccc4)CC3)nn2)cc1

>  <discrete.label>
inactive

$$$$

[Q] Recorded call for `O=C(O)c1cccc(CN2CCN(c3cc4c(cc3F)c(=O)c(C(=O)O)cn4C3CC3)CC2)c1O` ?
[A] inactive

[Q] What outcome does the record of this test show for `COc1ccc(/C=C2\N=C(Nc3ccccc3)N(NC(=O)c3ccccn3)C2=O)cc1` ?
[A] inactive
